- test method notes: HepG2 cell viability (CellTiter-Glo)
- Format: cell-based
- condition info: human, HepG2 cells, 5 µM, read-out: Cell viability, Mean (n=3)

- compound smiles: "CN(C)CCCN1c2ccccc2Sc2ccc(Cl)cc21"
  viability at 24 h, 5 µM / %: 101

* * *

- Tested on: N. gonorrhoeae
- test method notes: MIC determination, agar dilution (CLSI)
- Type: cell-based, Neisseria gonorrhoeae
- condition info: screening panel N. gonorrhoeae isolate H
Quick list: Minimum inhibitory concentration per entry.

- compound: "Cc1c(CN(C)C(=O)/C=C/c2cnc3c(c2)N[C@@H](C)[C@@H](O)C(=O)N3)oc2ccccc12"
  Minimum inhibitory concentration, mg/L: 2
- compound: "Cc1oc2ccccc2c1CN(C)C(=O)/C=C/c1cnc2c(c1)NCCC(=O)N2"
  Minimum inhibitory concentration, mg/L: 2
- compound: "Cc1c(CN(C)C(=O)/C=C/c2cnc3c(c2)N[C@@H](C)CC(=O)N3)oc2ccccc12"
  Minimum inhibitory concentration, mg/L: 1
- compound: "O=C1CCNc2cc(/C=C/C(=O)N3CCC=C(c4ccccc4)CC3)cnc2N1"
  Minimum inhibitory concentration, mg/L: 4
- compound: "O=C1CCNc2cc(C=CC(=O)N3CC4C=C(c5ccccc5)CC4C3)cnc2N1 (centres unmarked)"
  Minimum inhibitory concentration, mg/L: 4
